test system: NCI-H226; experiment: NCI60 growth inhibition, NCI-H226; type: cell-based; settings: Non-Small Cell Lung Cancer; further: test concentration or dose not given here
Some compounds, each annotated with its measured Growth inhibition (% control) GIPRCNT.
Please give a number only; it is taken to be in % control.

Solved cases (3 shown):
CN1CCN(c2cc(F)c(NC3=C(Cl)C(=O)c4ncccc4C3=O)c(F)c2)CC1 [Compound 1]; 85.32
O=C1c2cccnc2C(=O)c2nc3cc(N4CCN(C5CC5)CC4)ccc3nc21 [Compound 49]; −49.1
Cc1ccc2c(n1)C(=O)C(Cl)=C(Nc1ccc(N3CCN(C)CC3)cc1)C2=O [Compound 13]; 105.4813

Any idea what its Growth inhibition (% control) GIPRCNT is? The compound is CN1CCN(c2ccc3nc4c(nc3c2C(F)(F)F)C(=O)c2ncccc2C4=O)CC1 [Compound 50] −78.8735
